Assay: physchem
Details: pH 7, aqueous buffer
measure: solubility (µg/mL)

givensmiles=COc1ccc(C[C@H](NC(=O)[C@H](C)NC(=O)CN2CC3CC(C2)O3)C(=O)N[C@@H](CC2CCCC2)C(=O)[C@@]2(C)CO2)cc1 measvalue=3620

* * *

Target: UniProt:P28062
Test: 20S proteasome assay, chymotrypsin-like activity (succinyl-Leu-Leu-Val-Tyr-AMC), i20S
Format: biochemical
Settings: LLVY substrate, 1 h continuous
From the text: Assay buffer consisted of TE buffer [20 mmol/L Tris (pH 8.0), 0.5 mmol/L EDTA] with (20S) or without (cell lysate) 0.03% SDS. Reactions were initiated by enzyme or lysate addition and monitored for AMC product formation at 27jC with a plate-based spectofluorometer (Tecan).
Mark each entry 1 if its IC50 sits below 70 nM, and -1 for all others.

givensmiles=COc1ccc(C[C@H](NC(=O)[C@H](C)NC(=O)CN2CCC(F)(F)C2)C(=O)N[C@@H](CC2CCCC2)C(=O)[C@@]2(C)CO2)cc1 classassignment=-1
givensmiles=C[C@H](NC(=O)CN1CCOCC1)C(=O)N[C@@H](Cc1coc2ccccc12)C(=O)N[C@@H](CC1CCCC1)C(=O)[C@@]1(C)CO1 classassignment=-1
givensmiles=COc1ccc(C[C@H](NC(=O)[C@H](C)NC(=O)CN2CCOCC2)C(=O)N[C@@H](CC2CCCC2)C(=O)[C@@]2(C)CO2)c(F)c1 classassignment=-1
givensmiles=COc1ccc(C[C@H](NC(=O)[C@@H](C)NC(=O)[C@H]2CC[C@@H](O)CC2)C(=O)N[C@@H](CC2=CCCC2)C(=O)[C@@]2(C)CO2)cc1 classassignment=1
givensmiles=COc1ccc(C[C@H](NC(=O)[C@@H](C)NC(=O)[C@H]2CCC(=O)NC2)C(=O)N[C@@H](CC2CCCC2)C(=O)[C@@]2(C)CO2)cc1 classassignment=-1
